These data points were gathered from paper PMC11589101.

Biological target: human transthyretin (TTR) (Homo sapiens)
Assay: FITC-T4 TTR-binding assay, initial (original) method
Items are presented alongside their recorded pIC50.
Just so you know, pIC50 here is -log10 of the concentration in molar units; reply with that number alone.

> print(dat)
                                   compound  measured.number
1  CC(C)(C)C(O)C(Oc1ccc(-c2ccccc2)cc1)n1cncn1 (stereo not drawn)             4.20
2  CC1COC(Cn2cncn2)(c2ccc(Oc3ccc(Cl)cc3)cc2Cl)O1 (stereo not drawn)             4.41

Measured pIC50, O=S(=O)(O)C(F)(F)C(F)(F)C(F)(F)C(F)(F)C(F)(F)C(F)(F)F : 6.57

* * *

Molecular target: human transthyretin (TTR) (Homo sapiens)
Test: FITC-T4 TTR-binding assay, initial (original) method
Conditions: initial method; 110 nM FITC-T4, 30 nM TTR
READOUT: IC10 competing with FITC-T4 for binding to TTR (nM)
Write the number in nM without appending the unit.

Consider the following illustrative entries.
> print(dat)
                                   compound  unit.annotation  measured.number
1  NC(Cc1cc(I)c(Oc2cc(I)c(O)c(I)c2)c(I)c1)C(=O)O (stereo not shown) [T4, thyroxine, reference compound]               nM              2.4
2  O=C(O)C(F)(OC(F)(F)C(F)(F)C(F)(F)F)C(F)(F)F (stereo not shown) [GenX, Hexafluoropropylene oxide dimer acid]               nM             1900
3                         Cc1cccc2[nH]nnc12               nM             1300
4  O=S(=O)(O)C(F)(F)C(F)(F)C(F)(F)C(F)(F)C(F)(F)C(F)(F)F               nM               34
5  O=C(O)C(F)(F)C(F)(F)C(F)(F)C(F)(F)C(F)(F)F               nM              200
6  O=S(=O)(O)C(F)(F)C(F)(F)C(F)(F)C(F)(F)C(F)(F)C(F)(F)C(F)(F)C(F)(F)F               nM               47

Please examine the following record next.
Given the compound O=C(O)C(F)(F)C(F)(F)C(F)(F)C(F)(F)C(F)(F)C(F)(F)C(F)(F)F and test system human transthyretin (TTR) (Homo sapiens), the measured IC10 competing with FITC-T4 for binding to TTR is 53

* * *

The entries below are paired with their reported TR antagonism % max combined.
Tested on: thyroid hormone receptor (TR)
Experiment: TR-Luc reporter gene assay, antagonism (coexposure with 110 pM T3)
Assay type: cell-based
Conditions: 3 uM, coexposure with 110 pM T3
Just the number please, in %, no unit attached.

Observe how each entry below is paired with its result.
> print(dat)
                                   molecule  measured.number
1  CC(C)(C)C(O)C(Oc1ccc(Cl)cc1)n1cncn1 (stereo not shown)           105.58
2  CCCC1COC(Cn2cncn2)(c2ccc(Cl)cc2Cl)O1 (stereo not shown)           100.91
3  CC1COC(Cn2cncn2)(c2ccc(Oc3ccc(Cl)cc3)cc2Cl)O1 (stereo not shown)            56.28

Could you now look at the following molecule, please?
Input CCNc1nc(NC(C)C)nc(SC)n1 . Output TR antagonism % max combined: 87.03
